Values from ChEMBL document CHEMBL3988442

# testedTarget: Tyrosyl-tRNA synthetase, putative (Trypanosoma cruzi (strain CL Brener))
# Sequence (whole entry): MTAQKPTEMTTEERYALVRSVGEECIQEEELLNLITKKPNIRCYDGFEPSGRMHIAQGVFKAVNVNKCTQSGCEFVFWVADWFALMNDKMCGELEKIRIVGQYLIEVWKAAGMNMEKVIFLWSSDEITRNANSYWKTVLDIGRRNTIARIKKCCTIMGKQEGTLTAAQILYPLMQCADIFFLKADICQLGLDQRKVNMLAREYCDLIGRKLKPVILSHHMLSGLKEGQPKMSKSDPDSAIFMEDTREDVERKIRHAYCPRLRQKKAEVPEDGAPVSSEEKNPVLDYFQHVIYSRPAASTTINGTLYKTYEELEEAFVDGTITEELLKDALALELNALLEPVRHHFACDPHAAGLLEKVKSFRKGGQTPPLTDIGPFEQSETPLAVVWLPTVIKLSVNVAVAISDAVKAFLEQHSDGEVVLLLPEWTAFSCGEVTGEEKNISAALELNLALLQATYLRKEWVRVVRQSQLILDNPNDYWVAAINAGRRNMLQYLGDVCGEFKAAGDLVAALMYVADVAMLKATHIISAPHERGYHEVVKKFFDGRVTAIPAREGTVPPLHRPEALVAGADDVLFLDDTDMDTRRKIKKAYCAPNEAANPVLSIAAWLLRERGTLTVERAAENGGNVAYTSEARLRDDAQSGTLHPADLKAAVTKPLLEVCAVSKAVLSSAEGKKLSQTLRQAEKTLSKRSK
# assayNotes: Trypanosoma cruzi tyrosyl tRNA synthetase (TcYRS) _High Tyrosine SOP
# Type: functional
# Design: scale not given: in the data most compounds retested in dose-response had high values
# testConditions: 30 µM
Each entry below carries its reported Percent Effect.
propertyLabel: Percent Effect (%)

{"molecule": "Cc1ccc(C(=O)NCCS(C)(=O)=O)c(=O)[nH]1", "experimentalResult": 9.9}
{"molecule": "Cc1ccc(NC(=O)CNc2cccc3c2CCCC3)c(Br)c1", "experimentalResult": 5.38}
{"molecule": "Cc1cc(CN(C)C(=O)C2CCCN(C(=O)c3cccs3)C2)no1 (centres undefined)", "experimentalResult": 5.38}
{"molecule": "CN1CC(c2ccccc2)CC12CCN(C(=O)c1ccc(F)cc1)CC2 (centres undefined)", "experimentalResult": 0.532}
{"molecule": "COCc1cncc2c1CCN(C(=O)c1ccc(C)o1)C2", "experimentalResult": 4.17}
{"molecule": "CCc1nnc2n1CCN(CC(=O)Nc1cc(C(C)(C)C)nn1C)C2", "experimentalResult": 3.43}
{"molecule": "Cc1ccc(NC(=O)C2CSCN2C(=O)c2cnccn2)c(C)c1 (centres undefined)", "experimentalResult": 3.35}
{"molecule": "Cc1cn2c(n1)CCC(NC(=O)c1c[nH]c(C)n1)C2 (centres undefined)", "experimentalResult": 3.68}
{"molecule": "Cc1nccn1C1CCCN(C(=O)COCC(F)(F)F)C1 (centres undefined)", "experimentalResult": -3.35}
{"molecule": "Cc1ccc(S(=O)(=O)N2C[C@H]3C[C@H](NC(=O)c4ccnn4C)[C@H]3C2)cc1", "experimentalResult": 2.15}
{"molecule": "CCCN1CC(C(=O)Nc2ccccn2)CC1=O (centres undefined)", "experimentalResult": 2.65}
{"molecule": "Cc1nnc(NCc2ccccc2Cl)c(C#N)c1C", "experimentalResult": 13.9}
{"molecule": "O=S(=O)(C1CC1)N1C[C@H]2CCC[C@@]2(COc2ccccn2)C1", "experimentalResult": 3.17}
{"molecule": "CCN1CCN(CC(C)(O)c2cccc(C(F)(F)F)c2)CC1 (centres undefined)", "experimentalResult": 2.94}
{"molecule": "CN1[C@@H](C(=O)NCC2CC2)C[C@@H]2CN(Cc3ccco3)C[C@@H]21", "experimentalResult": 5.8}
{"molecule": "CN1CCC(NC(=O)NCCNc2ccccn2)CC1", "experimentalResult": 3.96}
{"molecule": "COc1ccc(F)cc1C(C)NC(=O)c1nnc(C)s1 (centres undefined)", "experimentalResult": -3.23}
{"molecule": "Cc1nc(-c2ccsc2)ccc1C(=O)O", "experimentalResult": 5.26}
{"molecule": "CC(C)(C)OC(=O)CNC(=O)CCc1nnc(-c2ccsc2)o1", "experimentalResult": 3.23}
{"molecule": "O=C(NCC1CC1)C1CSCN1S(=O)(=O)c1cccc(F)c1 (centres undefined)", "experimentalResult": 4.3}
{"molecule": "CCOc1ccnc(N2CCN(C(=O)c3cc(Cl)c[nH]3)CC2)n1", "experimentalResult": 9.36}
{"molecule": "Cc1ccc(C(=O)Nc2cn[nH]c2)cn1", "experimentalResult": 1.47}
{"molecule": "COc1ccc(OCCc2sc(C3(O)CCCNCC3)nc2C)cc1 (centres undefined)", "experimentalResult": -3.23}
{"molecule": "COC(=O)c1sccc1NC(=O)C1CCCN1C(=O)c1ccco1 (centres undefined)", "experimentalResult": -3.16}
